Entries and their pIC50 values follow.
- TARGET OR TEST SYSTEM: EGFR T790ML858R (Homo sapiens, UniProt P00533, L858R/T790M)
- Sequence (P00533 25-1210 T790M/L858R): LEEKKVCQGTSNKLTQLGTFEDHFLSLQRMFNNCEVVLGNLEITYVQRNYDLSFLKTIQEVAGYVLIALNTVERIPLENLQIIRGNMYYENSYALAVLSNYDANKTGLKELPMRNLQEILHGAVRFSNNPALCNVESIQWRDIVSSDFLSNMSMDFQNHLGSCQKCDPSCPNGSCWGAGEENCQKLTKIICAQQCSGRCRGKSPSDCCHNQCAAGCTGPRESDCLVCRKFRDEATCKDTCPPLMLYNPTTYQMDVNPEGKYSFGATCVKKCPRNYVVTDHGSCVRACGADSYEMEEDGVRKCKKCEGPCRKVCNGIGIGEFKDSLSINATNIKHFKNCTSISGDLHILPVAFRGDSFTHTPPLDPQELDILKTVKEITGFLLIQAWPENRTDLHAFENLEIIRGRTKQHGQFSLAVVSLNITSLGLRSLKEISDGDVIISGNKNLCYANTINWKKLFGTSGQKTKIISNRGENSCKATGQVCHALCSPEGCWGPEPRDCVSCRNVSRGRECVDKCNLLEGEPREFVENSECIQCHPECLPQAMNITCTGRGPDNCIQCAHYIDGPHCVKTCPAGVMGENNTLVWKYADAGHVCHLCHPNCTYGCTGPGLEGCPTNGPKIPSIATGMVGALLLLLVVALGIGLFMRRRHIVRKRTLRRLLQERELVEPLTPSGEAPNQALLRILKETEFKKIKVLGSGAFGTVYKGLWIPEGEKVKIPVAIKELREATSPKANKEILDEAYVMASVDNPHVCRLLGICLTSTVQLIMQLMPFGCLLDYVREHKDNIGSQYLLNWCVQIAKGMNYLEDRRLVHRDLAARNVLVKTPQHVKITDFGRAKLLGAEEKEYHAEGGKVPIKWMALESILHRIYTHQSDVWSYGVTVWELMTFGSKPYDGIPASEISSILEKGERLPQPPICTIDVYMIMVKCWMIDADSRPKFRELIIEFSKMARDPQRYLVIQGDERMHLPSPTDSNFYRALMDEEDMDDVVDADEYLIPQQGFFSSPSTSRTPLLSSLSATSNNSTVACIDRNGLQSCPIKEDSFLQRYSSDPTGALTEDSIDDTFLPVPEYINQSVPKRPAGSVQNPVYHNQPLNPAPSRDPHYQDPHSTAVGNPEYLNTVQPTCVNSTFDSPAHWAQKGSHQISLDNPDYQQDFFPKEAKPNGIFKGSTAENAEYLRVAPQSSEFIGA
- MEASUREMENT DESCRIPTION: EGFR T790ML858R Lance assay
pIC50: −log10 of the molar value.

C=CC(=O)Nc1cc(-c2c(-c3ccc(F)c(C(=O)N4CCOCC4)c3)[nH]c3nccc(Cl)c23)ccc1C :: 6.30 to 7.00
C=CC(=O)N1CCc2ccc(-c3c(-c4ccc(N5CCN(C)CC5)c(F)c4)[nH]c4nccc(Cl)c34)cc21 :: ≥ 7.00
C=CC(=O)Nc1cc(-c2c(-c3cccc(C(=O)N4CCCCCC4)c3)[nH]c3nccc(Cl)c23)ccc1C :: 6.30 to 7.00
C=CC(=O)Nc1cc(-c2c(-c3ccnc(N4CCN(C)CC4)c3)[nH]c3nccc(Cl)c23)ccc1C :: ≥ 7.00
C=CC(=O)Nc1cc(-c2c(-c3ccc(N4CCN(C)CC4)cc3)[nH]c3ncc(C(=O)O)cc23)ccc1C [Example 116, 2,2,2-trifluoroacetate] :: ≥ 7.00
C=CC(=O)N1CCCc2ccc(-c3c(-c4ccc(OCCN(C)C)cc4)[nH]c4nccc(Cl)c34)cc21 :: ≥ 7.00

Okay, now this compound:
-- ask Sample C=CC(=O)N1CCc2ccc(-c3c(-c4ccc(N5CCN(C(C)C)CC5)cc4)[nH]c4nccc(Cl)c34)cc21 — what was its pIC50?
-- reply ≥ 7.00
